Tested on: MCF7
measurement-notes: NCI tumour cell line growth inhibition, 48 h
Active and inactive are the calls of the source. No stated cut-off is given here; in the data, active = GI50 up to about 1.1 µM and inactive = higher.
Outcome (select one): active, inactive

COc1cc2c(cc1OC)C(Cc1ccccc1CCCl)=NCC2	inactive
CCN1C[C@]2(C)CC[C@H](OC)C34C5C[C@@H]6[C@@H](OC)C[C@@](OC)(C5[C@H]6OCc5ccccc5)C(C13)[C@H](OC(C)=O)[C@@H]42 (stereo partly specified)	inactive
CCCCCCCCCCOC1C(C(C)OCCCN(C)C)OC2OC3(CCCCC3)OC21 (stereo unspecified)	inactive
Cc1ccc(/N=N/c2ccc(O)c(CN(C)C)c2)cc1C	inactive
CC(=O)N1C(CCc2ccccc2)CC(C)(C=O)C1Cc1ccc(O[Si](C(C)C)(C(C)C)C(C)C)cc1 (stereo unspecified)	inactive
O=C1/C(=C/c2n[nH]cc2-c2ccc(Cl)cc2)C(=O)N(c2ccccc2)C1c1ccccc1 (stereo unspecified)	inactive
O=C1OC[C@H]2[C@@H]1[C@H]1O[C@@H]2C2=C(CCC2)C1=O	inactive
CCN(CC)CCCNc1n[n+]([O-])c2ccccc2[n+]1[O-]	inactive

What did this assay record as the result for COC1OC2COC(c3ccccc3)OC2C(O)C1OC(=S)c1ccccc1 (stereo unspecified) ? inactive

Now consider O=C1C(C(O)(C(F)(F)Cl)C(F)(F)Cl)CCCC1C(O)(C(F)(F)Cl)C(F)(F)Cl (stereo unspecified) and answer again. inactive

* * *

Tested on: DU-145
measurement-notes: NCI tumour cell line growth inhibition, 48 h
Calls of active or inactive are those of the source. Rule as the data show it: active = GI50 up to about 1.1 µM and inactive = higher.
Could you please report measured GI50 for the items listed next?

COc1ccc(Cc2nc3cc(Cl)ccc3o2)cc1	38.8 µM (inactive)

// for each compound below, give its GI50
1. O=C(N/N=C\c1ccc([N+](=O)[O-])s1)c1ccncc1
2. CCN(CC)CCCNc1n[n+]([O-])c2ccccc2[n+]1[O-]
3. Nc1nc(SCC(=O)O)nc(O)c1N

["20.7 µM (inactive)", "18.4 µM (inactive)", "> 100 µM (inactive)"]

Below is a list of compounds. For each, state its recorded GI50.
1. Cc1cc(S(=O)(=O)Nc2nnc3c(Cl)cc(C(F)(F)F)cn23)c(S)cc1Cl
2. CCC1OC2(C)CC(C#N)(C#N)C1(C#N)C(=N)O2 (stereo unspecified)

> 91.8 µM (inactive)
> 100 µM (inactive)

* * *

System: LOX IMVI
measurement-notes: NCI tumour cell line growth inhibition, 48 h
Active and inactive are the calls of the source. Rule as the data show it: active = GI50 up to about 1.1 µM and inactive = higher.
Permitted responses: active, inactive

Which outcome was assigned to CO[C@@H]1C[C@H](OC(N)=O)[C@@H]2C=C[C@@H]3/C=C(C)/C=C/[C@@H](C)[C@H](/C(C)=C/[C@@H](C)NC(C)=O)OC(=O)/C=C/C=C(C)\C=C\[C@]3(C)[C@@H]2C1 [SUPERSTOLIDE B] in this test? active

* * *

Test system: ACHN
measurement-notes: NCI tumour cell line growth inhibition, 48 h
The source made the active and inactive calls. Cut-off read from the data, not from the text of the source: active = GI50 up to about 1.1 µM and inactive = higher.
Bench note: report the call from active, inactive

CC1CN=C(N(C)C(=O)Nc2ccc(Cl)cc2)S1 (stereo not given)	inactive
COc1cc(Nc2cnc3cc(F)c(F)cc3n2)cc(OC)c1OC	inactive
CC(O)/C=C/C(CCC(C)CO)C(C)C (stereo not given)	inactive

Check the results log: what was the call for C=C(C(=C)P(=S)(c1ccccc1)c1ccccc1)P(=S)(c1ccccc1)c1ccccc1 ? inactive

Another compound: COc1ccc(-c2nc(O)c3ccccc3n2)cc1 inactive

Can you handle O=C(Nc1nc(C23CC4CC(CC(C4)C2)C3)cs1)c1cc2cc([N+](=O)[O-])ccc2oc1=O next? inactive

Try this compound too: O=C1NP23(OCCO2)Oc2ccccc2C3(C(F)(F)F)O1 (stereo not given) inactive
